Source listed as patent US20190119251A1.

Target: human V1a receptor (Homo sapiens, UniProt P37288)
Sequence (P37288 whole entry): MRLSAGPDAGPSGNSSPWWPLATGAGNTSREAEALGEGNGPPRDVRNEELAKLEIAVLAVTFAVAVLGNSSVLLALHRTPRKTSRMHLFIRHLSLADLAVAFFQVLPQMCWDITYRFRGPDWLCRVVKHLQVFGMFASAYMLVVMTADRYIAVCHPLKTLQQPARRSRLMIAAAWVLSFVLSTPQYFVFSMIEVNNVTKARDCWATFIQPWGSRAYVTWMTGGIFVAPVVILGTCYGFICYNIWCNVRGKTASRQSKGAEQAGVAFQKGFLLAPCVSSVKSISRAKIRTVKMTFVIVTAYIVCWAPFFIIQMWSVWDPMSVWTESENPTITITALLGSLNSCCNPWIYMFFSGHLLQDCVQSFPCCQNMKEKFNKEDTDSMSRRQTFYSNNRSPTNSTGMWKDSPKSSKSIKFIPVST
Test: Cellular in vitro assay for determining vasopressin receptor activity (V1a cell line, aequorin luminescence)
Conditions: CHO cell line transfected with the human V1a receptor; agonist [Arg8]-vasopressin at EC50 concentration; read-out: IC50 hV1a
Lab note - cut at 0.03 µM for IC50: Yes if strictly below, No if not.

Known results for molecules:
smiles=NC(=O)c1ccncc1-n1nc(Cn2nc(-c3ccc(Cl)cc3)n(C[C@H](O)C(F)(F)F)c2=O)nc1C(N)=O class_name=No
smiles=Cc1cccnc1-n1nc(Cn2nc(-c3ccc(Cl)cc3)n(C[C@H](O)C(F)(F)F)c2=O)nc1C(N)=O class_name=Yes
smiles=NC(=O)c1nc(Cn2nc(-c3ccc(Cl)cc3)n(C[C@H](O)C(F)(F)F)c2=O)nn1-c1ccc(F)cc1Cl class_name=Yes
smiles=COc1nccnc1-n1nc(Cn2nc(-c3ccc(Cl)cc3)n(C[C@H](O)C(F)(F)F)c2=O)nc1C(N)=O class_name=No
smiles=Cc1cccc(C)c1-n1nc(Cn2nc(-c3ccc(Cl)cc3)n(C[C@H](O)C(F)(F)F)c2=O)nc1C(N)=O class_name=Yes
smiles=NC(=O)c1nc(Cn2nc(-c3ccc(Cl)cc3)n(C[C@H](O)C(F)(F)F)c2=O)nn1-c1c(F)cccc1F class_name=Yes
smiles=NC(=O)c1nc(Cn2nc(-c3ccc(Cl)cc3)n(C[C@H](O)C(F)(F)F)c2=O)nn1-c1c(Cl)cccc1Cl class_name=Yes
smiles=NC(=O)c1nc(Cn2nc(-c3ccc(Cl)cc3)n(C[C@H](O)C(F)(F)F)c2=O)nn1-c1ccccc1OC(F)F class_name=Yes

q: Criterion: IC50 strictly below 0.03 µM. Is it met by "CCOc1ncccc1-n1nc(Cn2nc(-c3ccc(Cl)cc3)n(C[C@H](O)C(F)(F)F)c2=O)nc1C(N)=O" ?
a: No

q: Criterion: IC50 strictly below 0.03 µM. Is it met by "NC(=O)c1nc(Cn2nc(-c3ccc(Cl)cc3)n(C[C@H](O)C(F)(F)F)c2=O)nn1-c1cc(Cl)ccn1" ?
a: No

q: Criterion: IC50 strictly below 0.03 µM. Is it met by "Cc1ccnc(Cl)c1-n1nc(Cn2nc(-c3ccc(Cl)cc3)n(C[C@H](O)C(F)(F)F)c2=O)nc1C(N)=O" ?
a: No

q: Criterion: IC50 strictly below 0.03 µM. Is it met by "NC(=O)c1nc(Cn2nc(-c3ccc(Cl)cc3)n(CC(=O)C(F)(F)F)c2=O)nn1-c1ccccc1Cl" ?
a: Yes

q: Criterion: IC50 strictly below 0.03 µM. Is it met by "NC(=O)c1nc(Cn2nc(-c3ccc(Cl)cc3)n(C[C@H](O)C(F)(F)F)c2=O)nn1-c1ccccn1" ?
a: No

q: Criterion: IC50 strictly below 0.03 µM. Is it met by "NC(=O)c1nc(Cn2nc(-c3ccc(Cl)cc3)n(C[C@H](O)C(F)(F)F)c2=O)nn1-c1ccccc1Cl" ?
a: Yes

q: Criterion: IC50 strictly below 0.03 µM. Is it met by "Cc1cnccc1-n1nc(Cn2nc(-c3ccc(Cl)cc3)n(C[C@H](O)C(F)(F)F)c2=O)nc1C(N)=O" ?
a: Yes

q: Criterion: IC50 strictly below 0.03 µM. Is it met by "NC(=O)c1nc(Cn2nc(-c3ccc(Cl)cc3)n(C[C@H](O)C(F)(F)F)c2=O)nn1-c1ccccc1F" ?
a: Yes

q: Criterion: IC50 strictly below 0.03 µM. Is it met by "CCc1cccnc1-n1nc(Cn2nc(-c3ccc(Cl)cc3)n(C[C@H](O)C(F)(F)F)c2=O)nc1C(N)=O" ?
a: Yes

q: Criterion: IC50 strictly below 0.03 µM. Is it met by "NC(=O)c1nc(Cn2nc(-c3ccc(Cl)cc3)n(C[C@H](O)C(F)(F)F)c2=O)nn1-c1ccccc1" ?
a: Yes

q: Criterion: IC50 strictly below 0.03 µM. Is it met by "COc1cccnc1-n1nc(Cn2nc(-c3ccc(Cl)cc3)n(C[C@H](O)C(F)(F)F)c2=O)nc1C(N)=O" ?
a: Yes

q: Criterion: IC50 strictly below 0.03 µM. Is it met by "NC(=O)c1nc(Cn2nc(-c3ccc(Cl)cc3)n(C[C@H](O)C(F)(F)F)c2=O)nn1-c1c(F)cccc1Cl" ?
a: Yes

q: Criterion: IC50 strictly below 0.03 µM. Is it met by "NC(=O)c1nc(Cn2nc(-c3ccc(Cl)cc3)n(C[C@@H](O)C(F)(F)F)c2=O)nn1-c1ccccc1Cl" ?
a: Yes

q: Criterion: IC50 strictly below 0.03 µM. Is it met by "COc1ccccc1-n1nc(Cn2nc(-c3ccc(Cl)cc3)n(C[C@H](O)C(F)(F)F)c2=O)nc1C(N)=O" ?
a: Yes

q: Criterion: IC50 strictly below 0.03 µM. Is it met by "NC(=O)c1nc(Cn2nc(-c3ccc(Cl)cc3)n(C[C@H](O)C(F)(F)F)c2=O)nn1-c1ncccc1F" ?
a: Yes

q: Criterion: IC50 strictly below 0.03 µM. Is it met by "NC(=O)c1nc(Cn2nc(-c3ccc(Cl)cc3)n(C[C@H](O)C(F)(F)F)c2=O)nn1-c1cccc(F)c1" ?
a: Yes

q: Criterion: IC50 strictly below 0.03 µM. Is it met by "CCc1cccc(C)c1-n1nc(Cn2nc(-c3ccc(Cl)cc3)n(C[C@H](O)C(F)(F)F)c2=O)nc1C(N)=O" ?
a: Yes

q: Criterion: IC50 strictly below 0.03 µM. Is it met by "NC(=O)c1nc(Cn2nc(-c3ccc(Cl)cc3)n(C[C@H](O)C(F)(F)F)c2=O)nn1-c1ccncc1Cl" ?
a: Yes

q: Criterion: IC50 strictly below 0.03 µM. Is it met by "NC(=O)c1nc(Cn2nc(-c3ccc(Cl)cc3)n(C[C@H](O)C(F)(F)F)c2=O)nn1-c1ncccn1" ?
a: No

q: Criterion: IC50 strictly below 0.03 µM. Is it met by "COC(=O)c1cccnc1-n1nc(Cn2nc(-c3ccc(Cl)cc3)n(C[C@H](O)C(F)(F)F)c2=O)nc1C(N)=O" ?
a: No
